Provenance of the data: PubChem BioAssay

test: basal 3T3-L1 adipocyte mitochondrial potential changes, profiling panel, cell-based, JC-1 fluorescence, 3T3-L1 adipocytes, 24 h, 100 nL compound (AID 1168); details: JC-1 mitochondrial fluorescence, higher = more signal, called active from +8 up or from −8 down; note: test concentration not given here
Decide using z-score: a value greater than or equal to 1 is label 1, a smaller one is label 0.

The following molecules have reported results that may help.
molecule	label
NC(=O)NCC#Cc1ccc2c(c1)[C@]1(C(=O)N2)[C@H](C(=O)N2CCCCCCC2)[C@H]2C(=O)O[C@H](c3ccccc3)[C@H](c3ccccc3)N2[C@@H]1c1ccccc1OCCO	label 1
CC(C)[Si](OCCCNS(=O)(=O)c1ccc(Br)cc1)(C(C)C)C(C)C	label 1
C=CCC(OC(C)=O)[C@@H]1[C@@H](N(Cc2cc3ccccc3o2)C(=O)c2ccc(C)cc2)c2cc(OCCCO)ccc2N1C(=O)c1ccc2ccccc2n1 (some centres not stated)	label 1

Lab note: next molecule to report on.
Hello, I need to know if `CC(C)(C)OC(=O)CC[C@]1(C(=O)N2CCCCC2)N=C(c2ccc(OCCCO)cc2)O[C@H]1c1ccccc1` has measured z-score not below 1. Thanks!
label 1
